# run description: recombinant barcode read abundance after kanamycin selection (control-corrected) (log10(CPM+1)); higher = more efficient recombination; sequences stand for … in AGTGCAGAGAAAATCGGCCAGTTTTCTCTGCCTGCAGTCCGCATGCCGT…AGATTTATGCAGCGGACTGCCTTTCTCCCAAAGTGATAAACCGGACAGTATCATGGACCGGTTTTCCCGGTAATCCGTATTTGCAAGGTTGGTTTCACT; site = the 11-nt target;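 also: IS621 recombinase and bridge RNA in Escherichia coli cells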
experimental endpoint: recombinant barcode read abundance (log10)
Would you mind answering with just the numeric figure?

Quick one: recombinant barcode read abundance (log10) for TGGAGCACTTGGGTTCTAACCTGTTGCCT (site TGGACCACTAG) ? 0.107

Further cases:
Quick one: recombinant barcode read abundance (log10) for GTATCGTCTTGGGTTCTAACCTGTTGCCT (site GTATCGTCTAG) ? 1.69

Quick one: recombinant barcode read abundance (log10) for TCTCTCGCTTGGGTTCTAACCTGTTGCCT (site TCTCTCGCTAG) ? 0.47

Quick one: recombinant barcode read abundance (log10) for GAGCGCTCTTGGGTTCTAACCTGTTGCTA (site GAGCGCTCTAA) ? 0.167
